Molecular target: T1, full length human TPO-R (human, UniProt P40238 26-635)
T1 sequence (looked up): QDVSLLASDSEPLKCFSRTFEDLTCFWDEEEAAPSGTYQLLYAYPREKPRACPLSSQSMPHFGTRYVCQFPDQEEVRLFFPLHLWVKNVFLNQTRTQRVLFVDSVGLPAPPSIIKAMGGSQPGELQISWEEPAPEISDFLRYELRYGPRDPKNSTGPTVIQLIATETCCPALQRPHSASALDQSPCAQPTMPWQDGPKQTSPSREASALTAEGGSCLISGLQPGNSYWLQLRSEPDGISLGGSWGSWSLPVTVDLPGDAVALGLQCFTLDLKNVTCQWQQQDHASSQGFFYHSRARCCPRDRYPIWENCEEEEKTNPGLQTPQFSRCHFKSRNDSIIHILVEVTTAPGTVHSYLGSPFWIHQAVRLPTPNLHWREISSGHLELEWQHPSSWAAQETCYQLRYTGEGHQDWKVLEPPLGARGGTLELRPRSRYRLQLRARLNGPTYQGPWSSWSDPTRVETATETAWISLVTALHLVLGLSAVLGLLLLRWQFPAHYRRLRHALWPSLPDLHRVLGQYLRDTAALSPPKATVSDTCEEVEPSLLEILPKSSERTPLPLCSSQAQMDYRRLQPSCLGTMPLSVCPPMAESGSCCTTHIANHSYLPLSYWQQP
Experiment: cell-based or functional assay
Bridges are numbered along the chain shown (N, C = ends). Where no end group is shown, it is not given here. [ ]: non-standard residue; d: D form. Phe(4-NO2) = N[C@@H](Cc1ccc([N+](=O)[O-])cc1)C(=O)O; Phe(3,4-Cl2) = N[C@@H](Cc1ccc(Cl)c(Cl)c1)C(=O)O; 2Thi = N[C@@H](Cc1cccs1)C(=O)O; NMeL = CN[C@@H](CC(C)C)C(=O)O; NMeA = CN[C@@H](C)C(=O)O; Nva = CCC[C@H](N)C(=O)O; Abu = CC[C@H](N)C(=O)O; Aib = CC(C)(N)C(=O)O
Measured metric: EC50 cell proliferation

* CADGPTLREWI[NMeL]FC (disulfide 1-14 (inferred); not fully specified) [SEQ ID NO:12 cyclized, S - (N-Me-Leu)] | ≤ 200000 nM
* CADGPTLREWI[NMeA]FC (disulfide 1-14 (inferred); not fully specified) [SEQ ID NO:12 cyclized, S - (N-Me-Ala)] | ~200000 nM
* CADGPTLREWIS[Phe(3,4-Cl2)]C (disulfide 1-14 (inferred); not fully specified) [SEQ ID NO:12 cyclized, F - (3,4-di-Cl-Phe)] | ≤ 500 nM
* CADGPTLREWI[Aib]FC (disulfide 1-14 (inferred); not fully specified) [SEQ ID NO:12 cyclized, S - Aib] | ≤ 500 nM
* CAAGPTLREWISFC (also: cyclized, mode not given here) [SEQ ID NO:12 cyclized, D - A] | ≤ 200000 nM
* CADGPTLREWI[Nva]FC (disulfide 1-14 (inferred); not fully specified) [SEQ ID NO:12 cyclized, S - Nva] | ≤ 500 nM
* CADGPTLREWIS[2Thi]C (disulfide 1-14 (inferred); not fully specified) [SEQ ID NO:12 cyclized, F - Thi] | ≤ 500 nM
* CADGPTLREWIS[Pyridylala]C (not fully specified (bridges); also: cyclized, type not given here) [SEQ ID NO:12 cyclized, F - (Pyridylala)] | ≤ 500 nM
* CADGPTLREWI[Abu]FC (disulfide 1-14 (inferred); not fully specified) [SEQ ID NO:12 cyclized, S - Abu] | ≤ 500 nM
* CADGPTLREWIS[Phe(4-NO2)]C (disulfide 1-14 (inferred); not fully specified) [SEQ ID NO:12 cyclized, F - (p-Nitrophe)] | ≤ 500 nM
* CADGPTLREWIS[NMeA]C (disulfide 1-14 (inferred); not fully specified) [SEQ ID NO:12 cyclized, F - (N-Me-Ala)] | ~200000 nM
* CADGPTLRQWISFC (also: cyclized, mode not given here) [SEQ ID NO:12 cyclized, E - Q] | ≤ 500 nM
